koff overview
ASSAY SYSTEM: T1, human PD-L1 (soluble protein of the kinetic measurements) (human, UniProt Q9NZQ7 19-238, limits assumed)
T1 construct: kept apart from the His-tag protein of the ELISA; also called hPD-L1
T1 sequence (Q9NZQ7 19-238 limits assumed): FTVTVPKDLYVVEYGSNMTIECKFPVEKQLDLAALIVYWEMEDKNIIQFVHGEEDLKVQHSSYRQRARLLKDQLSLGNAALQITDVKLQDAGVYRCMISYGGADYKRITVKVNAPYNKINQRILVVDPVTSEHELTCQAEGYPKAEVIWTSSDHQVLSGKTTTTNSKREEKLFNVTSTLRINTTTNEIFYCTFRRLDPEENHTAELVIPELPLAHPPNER
PROTOCOL TEXT: BLI (Octet), antibody fixed on biosensor, PD-L1 in solution
Method: The binding ability of the selected anti-PD-L1 antibody to human or mouse PD-L1 was measured using the Octet system (Fortebio Inc. US). For this purpose, an anti-PD-L1 antibody was fixed on a biosensor, and binding kinetics at each concentration of human or mouse PD-L1 were measured to calculate a binding rate constant (kₐ), a dissociation rate constant (kdis) and a binding constant (KD) (Table 3). The cell-binding ability of the optimized anti-PD-L1 antibody was measured through flow cytometry. […]
READOUT LABEL: koff (s⁻¹)

BINDER	READOUT LABEL	RECORDED RESULT
ME4 anti-PD-L1 antibody (IgG form) (antibody, V domains shown, Converted to IgG with the vectors pIgGHD-6A6Hvy and pIgGLD-6A6Lgt; Expressed in Expi293F cells) VH: QVQLVESGAEVKKPGSSVKVSCKASGGTFNNYAVSWVRQAPGQGLEWMGRIIPILGIANYAQTFQGRVTITADKSTTTAYMELSSLRSEDTAVYYCARSYSGYAEGAFDIWGQGTMVTVSS VL: QFVLTQPPSVSGAPGQRVTISCTGSSSNIGAGYDVHWYQQLPGTAPKVLIYGNSDRPSGVPDRFSGSKSGTSASLAITGLQGEDKATYYCQSYDSRLSGPVFGTGTKVTVLG	koff	0.000324
ME4.A11 anti-PD-L1 antibody (IgG form) (antibody, V domains shown) VH: QVQLVESGAEVKKPGSSVKVSCKASGGTFNNYAVSWVRQAPGQGLEWMGRIIPILGIANYAQTFQGRVTITADKSTTTAYMELSSLRSEDTAVYYCARSRGGYAHGAFDIWGQGTMVTVSS VL: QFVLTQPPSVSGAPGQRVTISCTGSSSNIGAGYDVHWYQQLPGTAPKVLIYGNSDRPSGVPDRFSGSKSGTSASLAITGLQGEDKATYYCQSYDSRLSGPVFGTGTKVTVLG	koff	0.000109
